Target: Stearoyl-CoA desaturase (Homo sapiens, UniProt O00767)
Sequence (O00767 whole entry): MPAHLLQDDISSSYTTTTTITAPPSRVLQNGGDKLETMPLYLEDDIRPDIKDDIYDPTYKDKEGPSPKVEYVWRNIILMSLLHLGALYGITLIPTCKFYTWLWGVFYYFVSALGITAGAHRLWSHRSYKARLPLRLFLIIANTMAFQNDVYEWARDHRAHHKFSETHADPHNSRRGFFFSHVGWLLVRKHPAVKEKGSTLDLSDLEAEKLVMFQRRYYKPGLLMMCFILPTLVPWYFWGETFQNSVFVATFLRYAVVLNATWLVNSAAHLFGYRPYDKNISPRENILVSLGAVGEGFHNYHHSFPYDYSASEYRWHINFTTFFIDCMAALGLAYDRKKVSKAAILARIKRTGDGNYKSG
ENDPOINT_LABEL: IC50 (nM)
Give bare numbers, in nM.

The molecule identified as O=C(O)Cn1nnc(-c2nnc(N3CCC4(CC3)CC(=O)c3c(Cl)cccc3O4)s2)n1 registered its IC50 at 24
